Molecular target: UniProt P23795
Sequence (P23795 whole entry): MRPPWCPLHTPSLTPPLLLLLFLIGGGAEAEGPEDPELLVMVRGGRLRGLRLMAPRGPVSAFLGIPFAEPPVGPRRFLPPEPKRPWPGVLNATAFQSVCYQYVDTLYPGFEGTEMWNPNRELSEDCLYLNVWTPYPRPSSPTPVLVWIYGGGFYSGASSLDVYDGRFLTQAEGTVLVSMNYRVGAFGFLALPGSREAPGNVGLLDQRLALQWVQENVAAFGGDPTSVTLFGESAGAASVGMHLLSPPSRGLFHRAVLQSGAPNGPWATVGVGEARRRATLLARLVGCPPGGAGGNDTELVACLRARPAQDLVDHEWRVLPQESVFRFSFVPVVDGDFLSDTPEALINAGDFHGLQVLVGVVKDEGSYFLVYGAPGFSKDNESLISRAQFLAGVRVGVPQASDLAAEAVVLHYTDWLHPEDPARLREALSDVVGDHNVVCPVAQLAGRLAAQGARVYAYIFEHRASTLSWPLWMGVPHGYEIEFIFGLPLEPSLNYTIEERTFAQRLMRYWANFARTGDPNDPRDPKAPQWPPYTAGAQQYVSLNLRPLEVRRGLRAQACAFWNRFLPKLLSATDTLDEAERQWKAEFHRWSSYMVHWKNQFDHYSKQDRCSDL
pIC50: −log10 of the molar value.

smiles string: CC[N+](CC)(CCNC(=O)C(=O)NCC[N+](CC)(CC)Cc1ccccc1Cl)Cc1ccccc1Cl
pIC50: 9.92
--
smiles string: Cc1c(C)c2ccc(OCCCCOc3cc(O)cc([N+](C)(C)C)c3)cc2oc1=O
pIC50: 9.00
--
smiles string: Cc1c(C)c2ccc(OCCCOc3cc(O)cc([N+](C)(C)C)c3)cc2oc1=O
pIC50: 8.68
--
smiles string: C=CC[N+](C)(C)c1ccc(CCC(=O)CCc2ccc([N+](C)(C)CC=C)cc2)cc1
pIC50: 8.10
--
smiles string: C[N+](C)(C)c1cccc(OCCCCOc2cccc([N+](C)(C)C)c2)c1
pIC50: 6.80
--
smiles string: CN(C)c1cc(O)cc(OCCCOc2cc(O)cc(N(C)Cc3ccccc3)c2)c1
pIC50: 5.21
--
smiles string: CN(C)c1cc(O)cc(OCCCCOc2cc(O)cc(N(C)C)c2)c1
pIC50: 5.19
--
smiles string: Cc1c(C)c2ccc(OCCCOc3cc(O)cc(N(C)C)c3)cc2oc1=O
pIC50: 6.06
--
smiles string: Cc1c(C)c2ccc(OCCCCOc3cc(O)cc(N(C)C)c3)cc2oc1=O
pIC50: 6.56
--
smiles string: C[N+](C)(C)c1cccc(O)c1
pIC50: 4.92
--
smiles string: C[N+](C)(C)c1cc(O)cc(OCCCOc2cc(O)cc([N+](C)(C)C)c2)c1
pIC50: 9.31
--
smiles string: C[N+](C)(C)c1cc(O)cc(OCCCCOc2cc(O)cc([N+](C)(C)Cc3ccccc3)c2)c1
pIC50: 5.18
--
smiles string: COc1ccc2c(C)c(C)c(=O)oc2c1
pIC50: 4.38
--
smiles string: CN(C)c1cc(O)cc(OCCCOc2cc(O)cc(N(C)C)c2)c1
pIC50: 5.72
